- PROTOCOL: DLS size of dendrimersomes assembled from glycerol-JDs in water at different concentrations
- Assay type: physicochemical
- SETTINGS: JD 0.05 mg·mL−1 in water
Returns: string. Value is fulfilled if measured PDI is below 0.3, and not fulfilled if it is greater than or equal to it.

CCCCCCCCCCCCOc1cc(OCCCCCCCCCCCC)cc(C(=O)OCC(C)(COC(=O)c2cc(OCCCCCCCCCCCC)cc(OCCCCCCCCCCCC)c2)C(=O)OC(COC(=O)c2cc(OCCOCCOCCOC)c(OCCOCCOCCOC)c(OCCOCCOCCOC)c2)COC(=O)c2cc(OCCOCCOCCOC)c(OCCOCCOCCOC)c(OCCOCCOCCOC)c2)c1 [Compound 4] | fulfilled
CCCCCCCCCCCCOc1cc(OCCCCCCCCCCCC)cc(C(=O)OCC(COC(=O)C(C)(COC(=O)c2cc(OCCOCCOCCOC)c(OCCOCCOCCOC)c(OCCOCCOCCOC)c2)COC(=O)c2cc(OCCOCCOCCOC)c(OCCOCCOCCOC)c(OCCOCCOCCOC)c2)OC(=O)c2cc(OCCCCCCCCCCCC)cc(OCCCCCCCCCCCC)c2)c1 (racemic) [Compound 1rac, (3,5)-12G1-GC-(rac)-BMPA-(3,4,5)-3EO-G1] | fulfilled
CCCCCCCCCCCCOc1cc(OCCCCCCCCCCCC)cc(C(=O)OCC(COC(=O)c2cc(OCCCCCCCCCCCC)cc(OCCCCCCCCCCCC)c2)OC(=O)C(C)(COC(=O)c2cc(OCCOCCOCCOC)c(OCCOCCOCCOC)c(OCCOCCOCCOC)c2)COC(=O)c2cc(OCCOCCOCCOC)c(OCCOCCOCCOC)c(OCCOCCOCCOC)c2)c1 [Compound 3] | fulfilled
CCCCCCCCCCCCOc1cc(OCCCCCCCCCCCC)cc(C(=O)OCC(C)(COC(=O)c2cc(OCCCCCCCCCCCC)cc(OCCCCCCCCCCCC)c2)C(=O)OC[C@@H](COC(=O)c2cc(OCCOCCOCCOC)c(OCCOCCOCCOC)c(OCCOCCOCCOC)c2)OC(=O)c2cc(OCCOCCOCCOC)c(OCCOCCOCCOC)c(OCCOCCOCCOC)c2)c1 [Compound 2R, (3,5)-12G1-BMPA-GC-(R)-(3,4,5)-3EO-G1] | not fulfilled
CCCCCCCCCCCCOc1cc(OCCCCCCCCCCCC)cc(C(=O)OC[C@H](COC(=O)C(C)(COC(=O)c2cc(OCCOCCOCCOC)c(OCCOCCOCCOC)c(OCCOCCOCCOC)c2)COC(=O)c2cc(OCCOCCOCCOC)c(OCCOCCOCCOC)c(OCCOCCOCCOC)c2)OC(=O)c2cc(OCCCCCCCCCCCC)cc(OCCCCCCCCCCCC)c2)c1 [Compound 1R, (3,5)-12G1-GC-(R)-BMPA-(3,4,5)-3EO-G1] | not fulfilled
CCCCCCCCCCCCOc1cc(OCCCCCCCCCCCC)cc(C(=O)OC[C@@H](COC(=O)C(C)(COC(=O)c2cc(OCCOCCOCCOC)c(OCCOCCOCCOC)c(OCCOCCOCCOC)c2)COC(=O)c2cc(OCCOCCOCCOC)c(OCCOCCOCCOC)c(OCCOCCOCCOC)c2)OC(=O)c2cc(OCCCCCCCCCCCC)cc(OCCCCCCCCCCCC)c2)c1 [Compound 1S, (3,5)-12G1-GC-(S)-BMPA-(3,4,5)-3EO-G1] | not fulfilled

Proceed to the following item.
# check: PDI < 0.3 for CCCCCCCCCCCCOc1cc(OCCCCCCCCCCCC)cc(C(=O)OCC(C)(COC(=O)c2cc(OCCCCCCCCCCCC)cc(OCCCCCCCCCCCC)c2)C(=O)OC[C@H](COC(=O)c2cc(OCCOCCOCCOC)c(OCCOCCOCCOC)c(OCCOCCOCCOC)c2)OC(=O)c2cc(OCCOCCOCCOC)c(OCCOCCOCCOC)c(OCCOCCOCCOC)c2)c1 [Compound 2S, (3,5)-12G1-BMPA-GC-(S)-(3,4,5)-3EO-G1]
not fulfilled
